target: SIRT1 (Homo sapiens); test: Trp mass spectrometry assay of SIRT1 deacetylase activation; format: biochemical; conditions: concentration that results in 150% activation of SIRT1; Trp peptide substrate
MEASUREMENT TYPE: TRP EC1.5 (μM)

> print(dat)
                              sample.smiles   endpoint.value
1  O=C(Nc1ccnc2cc(-c3ccccc3C(F)(F)F)nn12)c1cnccn1  C (EC1.5>25 μM)
2  O=C(Nc1cccnc1)c1cc(N2CCOCC2)nn2cc(-c3ccccc3F)nc12  C (EC1.5>25 μM)
3  O=C(Nc1ccnc2cc(-c3ccccc3C(F)(F)F)nn12)c1cscn1  C (EC1.5>25 μM)
4  Cc1cccnc1C(=O)Nc1ccnc2cc(-c3ccccc3C(F)(F)F)nn12  C (EC1.5>25 μM)

---

Biological target: SIRT1 (Homo sapiens)
Sequence (Q96EB6 1-747): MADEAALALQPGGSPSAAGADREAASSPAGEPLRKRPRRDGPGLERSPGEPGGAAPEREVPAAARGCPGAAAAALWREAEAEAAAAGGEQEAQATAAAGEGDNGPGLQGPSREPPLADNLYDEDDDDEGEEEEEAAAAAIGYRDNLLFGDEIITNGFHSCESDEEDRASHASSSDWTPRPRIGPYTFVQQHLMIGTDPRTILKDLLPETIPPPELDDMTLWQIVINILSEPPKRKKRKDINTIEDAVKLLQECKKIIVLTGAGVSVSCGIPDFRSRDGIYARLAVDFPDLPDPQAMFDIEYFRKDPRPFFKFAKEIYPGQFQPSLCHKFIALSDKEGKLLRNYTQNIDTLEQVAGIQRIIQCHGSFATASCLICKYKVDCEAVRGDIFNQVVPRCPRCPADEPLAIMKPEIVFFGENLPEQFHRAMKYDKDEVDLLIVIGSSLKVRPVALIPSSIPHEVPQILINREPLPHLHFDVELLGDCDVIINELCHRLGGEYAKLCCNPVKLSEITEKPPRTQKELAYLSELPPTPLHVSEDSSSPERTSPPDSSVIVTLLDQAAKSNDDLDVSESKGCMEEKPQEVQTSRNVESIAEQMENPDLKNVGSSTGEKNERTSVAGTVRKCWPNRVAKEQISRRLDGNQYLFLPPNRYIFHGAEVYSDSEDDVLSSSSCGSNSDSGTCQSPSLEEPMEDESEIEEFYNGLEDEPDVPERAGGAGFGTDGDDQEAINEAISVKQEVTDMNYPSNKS
Experiment: TAMRA based mass spectrometry assay of SIRT1 deacetylase activation
Format: biochemical
Settings: percent maximum fold activation relative to control (100%); TAMRA peptide substrate
MEASUREMENT TYPE: TAMRA % Fold Act

> print(dat)
                                   compound            endpoint.value
1  Cc1cnc(NC(=O)c2ccnn3cc(-c4cccc(C(F)(F)F)c4)nc23)s1 [Compound 18]  B (Fold Activation<350%)
2  O=C(Nc1ccccn1)c1ccnc2cc(-c3ccccc3C(F)(F)F)nn12 [Compound 75]  A (Fold activation≧350%)
3  O=C(Nc1nccs1)c1ccnn2cc(-c3cccc(Cl)c3)nc12 [Compound 21]  B (Fold Activation<350%)
4  O=C(Nc1nccs1)c1cc(N2CCOCC2)nn2cc(-c3cccc(Cl)c3)nc12 [Compound 30]  B (Fold Activation<350%)
5  O=C(Nc1cccc(N2CCOCC2)n1)c1ccnn2cc(-c3cccc(C(F)(F)F)c3)nc12 [Compound 20]  B (Fold Activation<350%)

TAMRA % Fold Act for Cc1csc(NC(=O)c2ccnc3cc(-c4ccccc4C(F)(F)F)nn23)n1 [Compound 81] ?
B (Fold Activation<350%)

TAMRA % Fold Act for O=C(Nc1nccs1)c1cc(N2CCOCC2)nn2cc(-c3ccccc3F)nc12 [Compound 37] ?
B (Fold Activation<350%)

TAMRA % Fold Act for O=C(Nc1ccnc2cc(-c3ccccc3C(F)(F)F)nn12)c1cnc(O)cn1 [Compound 117] ?
A (Fold activation≧350%)

TAMRA % Fold Act for O=C(Nc1ccnc2cc(-c3ccccc3C(F)(F)F)nn12)c1cnccn1 [Compound 61] ?
A (Fold activation≧350%)

TAMRA % Fold Act for O=C(Nc1ccnc2cc(-c3ccccc3C(F)(F)F)nn12)c1ccn[nH]1 [Compound 110] ?
A (Fold activation≧350%)

---

target: SIRT1 (Homo sapiens, UniProt Q96EB6); test: TAMRA based mass spectrometry assay of SIRT1 deacetylase activation; format: biochemical; conditions: percent maximum fold activation relative to control (100%); TAMRA peptide substrate
MEASUREMENT TYPE: TAMRA % Fold Act

> print(dat)
                              sample.smiles  measurement.type            endpoint.value
1  O=C(Nc1nccs1)c1ccnc2cc(-c3ccccc3C(F)(F)F)nn12  TAMRA % Fold Act  B (Fold Activation<350%)
2  Cc1cnc(NC(=O)c2ccnn3cc(-c4cccc(F)c4)nc23)s1  TAMRA % Fold Act  B (Fold Activation<350%)
3  O=C(Nc1ccncc1)c1cc(N2CCOCC2)nn2cc(-c3ccccc3Cl)nc12  TAMRA % Fold Act  B (Fold Activation<350%)
4  O=C(Nc1nccs1)c1ccnn2cc(-c3cccc(C(F)(F)F)c3)nc12  TAMRA % Fold Act  B (Fold Activation<350%)

---

Target: SIRT1 (Homo sapiens, UniProt Q96EB6)
Sequence (Q96EB6 1-747): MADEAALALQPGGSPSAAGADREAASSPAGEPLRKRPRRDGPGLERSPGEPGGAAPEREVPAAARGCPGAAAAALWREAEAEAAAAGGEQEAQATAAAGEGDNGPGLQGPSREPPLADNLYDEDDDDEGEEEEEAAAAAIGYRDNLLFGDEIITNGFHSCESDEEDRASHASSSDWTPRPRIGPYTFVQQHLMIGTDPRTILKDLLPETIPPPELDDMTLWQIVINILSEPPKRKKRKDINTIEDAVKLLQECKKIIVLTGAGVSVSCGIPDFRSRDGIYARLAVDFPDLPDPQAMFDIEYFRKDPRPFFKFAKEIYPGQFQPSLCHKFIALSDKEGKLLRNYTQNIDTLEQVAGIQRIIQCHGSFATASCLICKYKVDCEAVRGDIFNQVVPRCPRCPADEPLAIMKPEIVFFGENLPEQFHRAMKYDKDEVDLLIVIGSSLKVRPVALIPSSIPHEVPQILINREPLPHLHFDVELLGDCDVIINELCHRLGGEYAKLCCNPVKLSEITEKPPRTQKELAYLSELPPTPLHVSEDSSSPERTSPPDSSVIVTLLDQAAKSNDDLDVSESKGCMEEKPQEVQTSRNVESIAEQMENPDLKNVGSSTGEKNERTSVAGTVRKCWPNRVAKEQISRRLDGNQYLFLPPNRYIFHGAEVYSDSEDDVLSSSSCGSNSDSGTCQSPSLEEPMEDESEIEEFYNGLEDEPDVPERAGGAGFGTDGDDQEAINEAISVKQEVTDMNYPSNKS
Assay: TAMRA based mass spectrometry assay of SIRT1 deacetylase activation
Assay type: biochemical
Details: percent maximum fold activation relative to control (100%); TAMRA peptide substrate
MEASUREMENT TYPE: TAMRA % Fold Act

Consider the reported TAMRA % Fold Act for these compounds:
> print(dat)
                                   compound                         system.tested            endpoint.value
1  O=C(Nc1ccnc2cc(-c3cccc(C(F)(F)F)c3)nn12)c1ncccn1 [Compound 71]  SIRT1 (Homo sapiens, UniProt Q96EB6)  B (Fold Activation<350%)
2  Cc1cnc(C(=O)Nc2ccnc3cc(-c4ccccc4C(F)(F)F)nn23)s1 [Compound 58]  SIRT1 (Homo sapiens, UniProt Q96EB6)  B (Fold Activation<350%)
3  Cc1cnc(NC(=O)c2ccnn3cc(-c4ccccc4F)nc23)s1 [Compound 4]  SIRT1 (Homo sapiens, UniProt Q96EB6)  B (Fold Activation<350%)
4  O=C(Nc1ccnc2cc(-c3cccc(C(F)(F)F)c3)nn12)c1cccc(OCC(O)CO)n1 (centres unmarked) [Compound 74]  SIRT1 (Homo sapiens, UniProt Q96EB6)  B (Fold Activation<350%)
5  O=C(Nc1ccnc2cc(-c3cccc(C(F)(F)F)c3)nn12)c1ccccn1 [Compound 70]  SIRT1 (Homo sapiens, UniProt Q96EB6)  B (Fold Activation<350%)
6  O=C(Nc1ccnc2cc(-c3ccccc3C(F)(F)F)nn12)c1ncccc1F [Compound 113]  SIRT1 (Homo sapiens, UniProt Q96EB6)  A (Fold activation≧350%)
7  O=C(Nc1ccncc1)c1cc(N2CCOCC2)nn2cc(-c3ccccc3C(F)(F)F)nc12 [Compound 46]  SIRT1 (Homo sapiens, UniProt Q96EB6)  A (Fold activation≧350%)

TAMRA % Fold Act for Cc1csc(NC(=O)c2ccnc3cc(-c4cccc(C(F)(F)F)c4)nn23)n1 [Compound 89] ?
B (Fold Activation<350%)
